Target: panel of more than 300 wild-type and mutant kinases (313 kinase panel) (Homo sapiens, UniProt P31749)
Sequence (P31749 whole entry, change not shown): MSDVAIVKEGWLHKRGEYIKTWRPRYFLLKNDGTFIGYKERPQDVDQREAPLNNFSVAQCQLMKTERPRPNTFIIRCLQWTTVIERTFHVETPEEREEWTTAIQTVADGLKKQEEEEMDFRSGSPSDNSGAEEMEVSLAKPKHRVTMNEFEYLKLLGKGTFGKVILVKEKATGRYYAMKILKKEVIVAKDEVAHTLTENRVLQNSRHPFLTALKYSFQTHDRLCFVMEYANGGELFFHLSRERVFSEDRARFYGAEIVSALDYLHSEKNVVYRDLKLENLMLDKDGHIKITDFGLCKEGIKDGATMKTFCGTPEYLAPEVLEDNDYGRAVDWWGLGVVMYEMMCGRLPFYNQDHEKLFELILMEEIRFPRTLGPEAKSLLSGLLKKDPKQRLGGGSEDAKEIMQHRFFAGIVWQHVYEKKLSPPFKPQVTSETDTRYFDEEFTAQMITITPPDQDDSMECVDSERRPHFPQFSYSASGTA
Test: Kinase profiling in a biochemical assay panel (mobility shift assays and ELISA), %-inhibition at 1 μM; selectivity entropy
Conditions: kinase AKT1; 1 μM compound
So I've got a bunch of compounds here, and I need their %-inhibition, AKT1 values.

Request: What value of measured %-inhibition, AKT1 is listed for C[C@@H](Oc1cc(-c2cnn(C3CCNCC3)c2)cnc1N)c1c(Cl)ccc(F)c1Cl ?
Response: -7%

Request: What value of measured %-inhibition, AKT1 is listed for CCCS(=O)(=O)Nc1ccc(F)c(C(=O)c2c[nH]c3ncc(-c4ccc(Cl)cc4)cc23)c1F ?
Response: -4.52%

Request: What value of measured %-inhibition, AKT1 is listed for O=S(=O)(c1cccc2cnccc12)N1CCCNCC1 ?
Response: 4.44%

Request: What value of measured %-inhibition, AKT1 is listed for CNC(=O)c1cc(Oc2ccc(NC(=O)Nc3ccc(Cl)c(C(F)(F)F)c3)c(F)c2)ccn1 ?
Response: -5.68%

Request: What value of measured %-inhibition, AKT1 is listed for CO[C@H]1C[C@@H]2CC[C@@H](C)[C@@](O)(O2)C(=O)C(=O)N2CCCC[C@H]2C(=O)O[C@H]([C@H](C)C[C@@H]2CC[C@@H](OC(=O)C(C)(CO)CO)[C@H](OC)C2)CC(=O)[C@H](C)/C=C(\C)[C@@H](O)[C@@H](OC)C(=O)[C@H](C)C[C@H](C)/C=C/C=C/C=C/1C ?
Response: -4%

Request: What value of measured %-inhibition, AKT1 is listed for COc1cc2nccc(Oc3ccc(NC(=O)C4(C(=O)Nc5ccc(F)cc5)CC4)cc3)c2cc1OC [cabozantinib] ?
Response: -4.52%
